Target: NIH-3T3 cells overexpressing human IR (Homo sapiens)
Sequence (P06213 28-1382): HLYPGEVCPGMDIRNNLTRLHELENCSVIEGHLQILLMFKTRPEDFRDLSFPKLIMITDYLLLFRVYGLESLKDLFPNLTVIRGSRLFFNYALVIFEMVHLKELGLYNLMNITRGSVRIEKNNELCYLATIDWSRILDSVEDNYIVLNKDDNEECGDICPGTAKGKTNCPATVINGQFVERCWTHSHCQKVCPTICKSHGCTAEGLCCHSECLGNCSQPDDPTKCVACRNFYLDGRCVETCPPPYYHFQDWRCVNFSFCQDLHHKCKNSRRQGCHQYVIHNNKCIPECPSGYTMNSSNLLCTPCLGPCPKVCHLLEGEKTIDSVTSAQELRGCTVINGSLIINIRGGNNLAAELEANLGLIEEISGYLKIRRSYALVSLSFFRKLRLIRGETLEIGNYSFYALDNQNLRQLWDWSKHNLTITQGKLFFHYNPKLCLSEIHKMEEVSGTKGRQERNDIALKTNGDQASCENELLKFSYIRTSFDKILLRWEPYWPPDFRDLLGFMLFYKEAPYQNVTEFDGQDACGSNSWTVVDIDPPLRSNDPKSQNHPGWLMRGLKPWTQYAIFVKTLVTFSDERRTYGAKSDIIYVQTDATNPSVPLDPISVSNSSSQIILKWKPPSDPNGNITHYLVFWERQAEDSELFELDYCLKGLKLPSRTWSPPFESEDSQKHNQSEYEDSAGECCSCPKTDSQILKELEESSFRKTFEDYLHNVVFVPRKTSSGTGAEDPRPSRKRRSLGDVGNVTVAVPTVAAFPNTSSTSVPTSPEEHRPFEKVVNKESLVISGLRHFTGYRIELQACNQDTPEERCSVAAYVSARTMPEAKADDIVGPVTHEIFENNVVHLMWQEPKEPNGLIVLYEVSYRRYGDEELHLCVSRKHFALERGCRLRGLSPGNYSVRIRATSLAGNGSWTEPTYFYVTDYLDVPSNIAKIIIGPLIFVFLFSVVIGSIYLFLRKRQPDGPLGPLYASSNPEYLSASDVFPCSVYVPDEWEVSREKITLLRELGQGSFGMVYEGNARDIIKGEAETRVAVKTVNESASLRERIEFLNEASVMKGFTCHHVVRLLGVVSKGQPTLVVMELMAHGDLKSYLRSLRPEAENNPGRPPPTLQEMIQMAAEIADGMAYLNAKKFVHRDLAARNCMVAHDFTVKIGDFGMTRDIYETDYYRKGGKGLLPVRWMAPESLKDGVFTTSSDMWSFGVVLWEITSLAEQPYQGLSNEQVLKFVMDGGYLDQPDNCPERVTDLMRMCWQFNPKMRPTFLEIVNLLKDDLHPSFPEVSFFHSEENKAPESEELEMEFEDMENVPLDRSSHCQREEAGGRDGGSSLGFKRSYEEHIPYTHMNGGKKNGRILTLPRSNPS
Assay: IR cellular autophosphorylation (DELFIA)
Details: 2 h compound, insulin 3 ug/ml for 15 minutes, IC50 category
parameter-measured: IC50

Observe how each entry below is paired with its result.
- compound-string: "COc1cc2c(cc1Nc1nc(Nc3cc(Cl)cc(F)c3C(N)=O)c3cc[nH]c3n1)N(C(=O)CN1CCCC1)CCC2"
  IC50: "100 to 500 nM"
- compound-string: "COc1cc2c(cc1Nc1nc(Nc3cc(Cl)cc(F)c3C(N)=O)c3cc[nH]c3n1)N(C(=O)CN1CCCC1)CC2"
  IC50: "< 100 nM"
- compound-string: "COc1cc(N2CCN(C(C)C)CC2)ccc1Nc1nc(Nc2cccc3c2C(=O)NC3)c2cc[nH]c2n1"
  IC50: "< 100 nM"

Reported IC50 of COc1cc(N2CCC(N3CCOCC3)CC2)ccc1Nc1nc(Nc2cc(F)ccc2C(N)=O)c2cc[nH]c2n1 : 100 to 500 nM

get_value(item= COCC(=O)N1CCc2cc(OC)c(Nc3nc(Nc4cccc(F)c4C(N)=O)c4cc[nH]c4n3)cc21 , readout=IC50) returns 100 to 500 nM

Lab note: COc1cc2c(cc1Nc1nc(Nc3cc(F)cc(F)c3C(N)=O)c3cc[nH]c3n1)N(C(=O)CN(C)C)CCC2 gave IC50 of < 100 nM

====

Target: human IGF1R (hIGF1R) (Homo sapiens)
Construct: containing amino acid residues 957-1367 of human IGF1R; made in house; host or cells: Sf9 cells (baculovirus)
Sequence (P08069 957-1367): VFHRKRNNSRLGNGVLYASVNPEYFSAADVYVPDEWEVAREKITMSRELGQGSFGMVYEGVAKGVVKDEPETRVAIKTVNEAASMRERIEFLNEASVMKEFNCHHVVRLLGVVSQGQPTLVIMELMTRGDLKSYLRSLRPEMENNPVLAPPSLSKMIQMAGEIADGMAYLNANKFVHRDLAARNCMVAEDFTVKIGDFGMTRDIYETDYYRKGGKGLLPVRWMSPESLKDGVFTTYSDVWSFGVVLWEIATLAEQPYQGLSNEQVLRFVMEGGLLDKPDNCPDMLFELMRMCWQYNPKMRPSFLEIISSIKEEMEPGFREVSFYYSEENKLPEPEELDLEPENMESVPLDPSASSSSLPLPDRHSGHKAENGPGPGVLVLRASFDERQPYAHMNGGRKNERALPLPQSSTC
Assay: TR-FRET kinase assay of purified hIGF1R
Assay type: biochemical
Conditions: activated hIGF1R 0.5 nM, 10 μM ATP, values given as pIC50 category, read-out: IGF-1R pIC50 (converted)
We begin with a simple list: items and their reported IC50.

# count of solved cases: 8
- compound: "COc1cc2c(cc1Nc1nc(Nc3cccc4c3C(=O)NC4)c3cc[nH]c3n1)N(C(=O)CN(C)C)CC2 [Example 200]"
  IC50: "0.251 to 1 nM"
- compound: "CNC(=O)c1ccccc1Nc1nc(Nc2ccc(N3CCN(C(C)C)CC3)cc2OC)nc2[nH]ccc12 [Example 25]"
  IC50: "1.26 to 3.98 nM"
- compound: "Cc1ccc(NC(=O)CN(C)C)cc1Nc1nc(Nc2cc3ccccc3cc2C(N)=O)c2cc[nH]c2n1 [Example 30]"
  IC50: "1.26 to 3.98 nM"
- compound: "COc1cc2c(cc1Nc1nc(Nc3cc4ccccc4cc3C(N)=O)c3cc[nH]c3n1)N(C(=O)CN(C)C)CC2 [Example 124]"
  IC50: "0.251 to 1 nM"
- compound: "COc1c(Nc2nc(Nc3cccc(F)c3C(N)=O)c3cc[nH]c3n2)ccc(N2CCN(C(C)C)CC2)c1F [Example 51]"
  IC50: "1.26 to 3.98 nM"
- compound: "CCCN1CCC=C(c2ccc(Nc3nc(Nc4cc(F)ccc4C(=O)NCC(N)=O)c4cc[nH]c4n3)c(OC)c2)C1 [Example 67]"
  IC50: "1.26 to 3.98 nM"
- compound: "CNC(=O)c1c(F)cccc1Nc1nc(Nc2cc3c(cc2OC)CCCN3C(=O)CCN(C)C)nc2[nH]ccc12 [Example 213]"
  IC50: "5.01 to 200 nM"
- compound: "COc1cc2c(cc1Nc1nc(Nc3cccc(F)c3C(N)=O)c3cc[nH]c3n1)CN(C(=O)CCN1CCOCC1)CC2 [Example 231]"
  IC50: "5.01 to 200 nM"

Pending compound:
# compound COc1cc(N2CCOC[C@@H]2C)ccc1Nc1nc(Nc2cc(F)cc(F)c2C(N)=O)c2cc[nH]c2n1 [Example 90] ; its IC50 = 1.26 to 3.98 nM

Origin of values: patent US7981903B2
